Procedure text: MAD study plasma pharmacokinetics
Format: in vivo, human
Stated conditions: human, plasma, oral, 100 mg, C24 GM (CV%), MAD panel 2, 100 mg once daily, day 1
Quantity: concentration at 24 h (ng/mL)
Only the number, expressed in ng/mL, is required.

concentration at 24 h for CNc1nc(Nc2ccc(-n3cnc(C)n3)c(OC)c2)nc2c1CC[C@H]2c1ccc(F)cc1 ?
87

---

Procedure text: MAD study plasma pharmacokinetics
Type: in vivo, human
Stated conditions: human, plasma, oral, 50 mg, Cmax GM (CV%), MAD panel 1, 50 mg once daily, day 14
Quantity: Cmax (ng/mL)
Only the number, expressed in ng/mL, is required.

Cmax for CNc1nc(Nc2ccc(-n3cnc(C)n3)c(OC)c2)nc2c1CC[C@H]2c1ccc(F)cc1 ?
323

---

Procedure text: SAD study plasma pharmacokinetics
Format: in vivo, human
Stated conditions: both, human, plasma, oral, 900 mg, AUC0–∞ GM (CV%), SAD panel 8, 900 mg, elderly
Quantity: AUC(0-inf) (µg·h/mL)
Only the number, expressed in µg·h/mL, is required.

AUC(0-inf) for CNc1nc(Nc2ccc(-n3cnc(C)n3)c(OC)c2)nc2c1CC[C@H]2c1ccc(F)cc1 [BMS-932481] ?
156

---

Procedure text: MAD study plasma pharmacokinetics
Type: in vivo, human
Stated conditions: human, plasma, oral, 50 mg, C24 GM (CV%), MAD panel 1, 50 mg once daily, day 1
Quantity: concentration at 24 h (ng/mL)
Only the number, expressed in ng/mL, is required.

concentration at 24 h for CNc1nc(Nc2ccc(-n3cnc(C)n3)c(OC)c2)nc2c1CC[C@H]2c1ccc(F)cc1 ?
47

---

Procedure text: SAD study CSF pharmacokinetics
Assay type: in vivo, human
Stated conditions: human, oral, 900 mg
Quantity: Tmax (h)
Only the number, expressed in h, is required.

Tmax for CNc1nc(Nc2ccc(-n3cnc(C)n3)c(OC)c2)nc2c1CC[C@H]2c1ccc(F)cc1 [BMS-932481] ?
6

---

Procedure text: MAD study plasma pharmacokinetics
Assay type: in vivo, human
Stated conditions: human, plasma, oral, 200 mg
Quantity: half-life (h)
Only the number, expressed in h, is required.

half-life for CNc1nc(Nc2ccc(-n3cnc(C)n3)c(OC)c2)nc2c1CC[C@H]2c1ccc(F)cc1 [BMS-932481] ?
37

---

Procedure text: SAD study plasma pharmacokinetics
Assay type: in vivo, human
Stated conditions: both, human, plasma, oral, 300 mg, t1/2 Mean (S.D.), SAD panel 4, 300 mg, fasted
Quantity: half-life (h)
Only the number, expressed in h, is required.

half-life for CNc1nc(Nc2ccc(-n3cnc(C)n3)c(OC)c2)nc2c1CC[C@H]2c1ccc(F)cc1 [BMS-932481] ?
20

---

Procedure text: MAD study plasma pharmacokinetics
Type: in vivo, human
Stated conditions: human, plasma, oral, 50 mg
Quantity: half-life (h)
Only the number, expressed in h, is required.

half-life for CNc1nc(Nc2ccc(-n3cnc(C)n3)c(OC)c2)nc2c1CC[C@H]2c1ccc(F)cc1 ?
24

---

Procedure text: SAD study plasma pharmacokinetics
Format: in vivo, human
Stated conditions: both, human, plasma, oral, 10 mg, Cmax GM (CV%), SAD panel 1, 10 mg single dose
Quantity: Cmax (ng/mL)
Only the number, expressed in ng/mL, is required.

Cmax for CNc1nc(Nc2ccc(-n3cnc(C)n3)c(OC)c2)nc2c1CC[C@H]2c1ccc(F)cc1 ?
11

# credit: paper PMC4931877
